Biological target: T1, SHANK1, Q9Y566
T1 sequence (Q9Y566 658-767, limits assumed, looked up): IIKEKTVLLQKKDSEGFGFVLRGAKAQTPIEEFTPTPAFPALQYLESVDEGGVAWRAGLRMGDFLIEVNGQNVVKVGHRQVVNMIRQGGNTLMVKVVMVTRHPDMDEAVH
Test: holdup assay
Set-up: key: below the threshold = too weak to quantify, mostly under pKd 3.1 to 4
Settings: plain residues with an end cap or a label only (N-terminal biotin on a linker: ado-ado)
readout-type: pKd

Examples with their reported pKd follow.
[
  {
    "binder": "TKDKVQETQI [LRRC4, Q9HBW1]",
    "readout-type": "pKd",
    "data-value": 3.76
  },
  {
    "binder": "HLSTRQGTCV [ATRNL1, Q5VV63]",
    "readout-type": "pKd",
    "data-value": "below the threshold"
  },
  {
    "binder": "SGDGKTSVWI [GJC1, P36383]",
    "readout-type": "pKd",
    "data-value": 3.55
  },
  {
    "binder": "NNMAFETTHF [SLC5A12, Q1EHB4]",
    "readout-type": "pKd",
    "data-value": 5.81
  },
  {
    "binder": "DYSNLRETDI [ADRA1D, P25100]",
    "readout-type": "pKd",
    "data-value": "below the threshold"
  },
  {
    "binder": "GSQSQVETEA [FKBP4, Q02790]",
    "readout-type": "pKd",
    "data-value": 3.64
  },
  {
    "binder": "TNSKQGETTV [FZD1, Q9UP38]",
    "readout-type": "pKd",
    "data-value": 3.57
  },
  {
    "binder": "RSPVATATSC [DUSP5, Q16690]",
    "readout-type": "pKd",
    "data-value": 3.55
  },
  {
    "binder": "DLLGGGSDSI [TNRC6B, Q9UPQ9]",
    "readout-type": "pKd",
    "data-value": "below the threshold"
  },
  {
    "binder": "PLATCDETSI [SEMA4F, O95754]",
    "readout-type": "pKd",
    "data-value": 3.87
  }
]

Quick one: pKd for QLKSGRDSTV [TMEM178A, Q8NBL3] ?
below the threshold

Quick one: pKd for SQPLLVHDDV [KIT, P10721] ?
below the threshold

Quick one: pKd for IQISELETNV [SLC1A7, O00341] ?
3.94

Quick one: pKd for FHSIKQSTAV [CRHR1, P34998] ?
4.55

Quick one: pKd for HDDYFYHDEL [RCN2, Q14257] ?
below the threshold

Quick one: pKd for PAALPESTHM [SLC9A3, P48764] ?
4.78

Quick one: pKd for GNDPDRGTSI [GRID2, O43424] ?
3.54

Quick one: pKd for LVEEEEPMNL [HDAC7, Q8WUI4] ?
below the threshold

Quick one: pKd for VKQYADVEGF [HNRNPK, P61978;P61978-2] ?
below the threshold

Quick one: pKd for GVHSNDHSVV [LPAR1, Q92633] ?
below the threshold

Quick one: pKd for HYPASPDSWV [CTNND2, Q9UQB3] ?
below the threshold

Quick one: pKd for KSRPENGTVC [TMEM178B, H3BS89] ?
below the threshold
